system: MDA-N; experiment: NCI tumour cell line growth inhibition, 48 h
Activity calls are given as the source filed them. Cut-off read from the data, not from the text of the source: active = GI50 up to about 1.1 µM and inactive = higher.
reported-endpoint: GI50

INSERT INTO measurements (compound, data_value) VALUES
  ('CC1CC2CCCC(=O)C2=C(O)O1 (centres undefined)', '> 100 µM (inactive)'),
  ('COC1CC(N)(c2ccccc2)C(O)C(C)O1 (centres undefined)', '> 100 µM (inactive)'),
  ('Clc1ccc(OCc2nn3c(CCc4nnc5sc(COc6ccc(Cl)cc6)nn45)nnc3s2)cc1', '30.3 µM (inactive)'),
  ('COc1cc2c(cc1OC)C(=O)/C(=C/c1ccc(O)cc1)CC2', '> 10 µM (inactive)'),
  ('CCSc1cc(=O)n(C)c(=O)n1C', '> 100 µM (inactive)');

Respectfully, I request GI50 for each entry included below.
1. O=C(O)C1=NN(c2ccc(S(=O)(=O)O)cc2)C2(C1)C(Cl)C(=O)N2c1nc2ccccc2s1 (centres undefined)
2. O=C(C[N+]1(c2ccccc2)CCOCC1)c1ccccc1
3. O=C1c2ccccc2C(=O)[C@@]23O[C@@]12C1(Oc2cccc4cccc(c24)O1)[C@@H]1O[C@@H]1[C@@H]3O
4. COc1ccc(NC(=S)Nc2cc(C)cc(C)n2)cc1
5. CCCC[C@H]1[C@@H](OCOc2ccccc2)COC(=O)N1[C@H](C)c1ccccc1
6. CN1CCN(CCCBr)CC1
7. O=C(CN1CCNCCN(CC(=O)N2CCCCC2)CCNCC1)N1CCCCC1
8. CCOC(=O)/C(C#N)=N\Nc1ccc(-n2c(C)nc3ccccc3c2=O)cc1

A)
21.4 µM (inactive)
> 100 µM (inactive)
9.46 µM (inactive)
> 100 µM (inactive)
11.9 µM (inactive)
> 100 µM (inactive)
> 100 µM (inactive)
47.3 µM (inactive)

Q) GET /values?readout=GI50&system=MDA-N&item= Cc1ccc2c(c1)c1ccc3c(c1n2C)C(=O)C=CC3=O
A) 1.73 µM (inactive)

From: ChEMBL document CHEMBL1201862
